molecular target: apo NSMOA (Pseudomonas sp, UniProt O50214); test: biochemical
Sequence (O50214 whole entry): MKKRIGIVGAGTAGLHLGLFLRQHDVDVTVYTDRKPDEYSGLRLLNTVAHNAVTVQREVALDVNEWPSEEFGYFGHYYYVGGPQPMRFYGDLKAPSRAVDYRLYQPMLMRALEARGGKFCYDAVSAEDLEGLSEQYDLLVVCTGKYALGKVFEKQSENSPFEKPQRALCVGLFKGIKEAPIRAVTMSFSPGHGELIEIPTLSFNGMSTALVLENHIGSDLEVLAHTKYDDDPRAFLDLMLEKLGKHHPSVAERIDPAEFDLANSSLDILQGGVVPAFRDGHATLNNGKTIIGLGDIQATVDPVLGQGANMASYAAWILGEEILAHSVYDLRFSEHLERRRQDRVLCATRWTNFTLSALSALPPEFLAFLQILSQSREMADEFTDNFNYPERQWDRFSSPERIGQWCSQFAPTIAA
observation type: Kd (mM)
Give the value, in units of mM, as a plain number.

Query: // returns reported Kd for input c1ccccc1 [benzene, reference compound]
Result: 4.2

Source of measurements: paper PMC2827657
